target: human Nav1.1 (Homo sapiens); construct: host or cells: HEK293; assay: Amplification of Nav1.1-derived voltage-dependent sodium current (Nav1.1 current), cell line stably expressing human Nav1.1, automated patch clamp; format: cell-based; conditions: Concentration 10 μM (Test Result 7); read-out: Nav1.1 current amplification rate (%)
Overview of recorded activation at 10 µM for various compounds
reported.property: activation at 10 µM (%)

INSERT INTO results (compound, reported_property, units_text, value_observed) VALUES
  ('CN(c1ccc(=O)n(CC(=O)Nc2ccn3ncnc3c2)n1)C1CC1', 'activation at 10 µM', '%', 11),
  ('CN(CC1CC1)c1ccc(=O)n(CC(=O)Nc2ccn3ncnc3c2)n1', 'activation at 10 µM', '%', 34),
  ('CN(c1ccc(=O)n(CC(=O)Nc2cnc3cccnc3c2)n1)C1CCCC1', 'activation at 10 µM', '%', 73),
  ('CC1CC=C(c2ccc(=O)n(CC(=O)Nc3ncc4ccccc4n3)n2)CC1 (centres unmarked)', 'activation at 10 µM', '%', 16),
  ('COc1cc(C)cc(F)c1-c1ccc(=O)n(CC(=O)Nc2ccn3ncnc3c2)n1', 'activation at 10 µM', '%', 24);

====

target: human Nav1.1 (Homo sapiens, UniProt P35498); construct: host or cells: HEK293; assay: Amplification of Nav1.1-derived voltage-dependent sodium current (Nav1.1 current), cell line stably expressing human Nav1.1, automated patch clamp; type: cell-based; conditions: compound 50 μmol/L; HEK293 stably expressing human Nav1.1; read-out: Nav1.1 current amplification rate (%)
Overview of recorded activation at 50 µM for various compounds
reported.property: activation at 50 µM (%)

INSERT INTO results (compound, value_observed) VALUES
  ('Cc1cc(=O)n(CC(=O)Nc2ccn3cnnc3c2)nc1C1=CCC(C)(C)CC1 [Example 505]', 255),
  ('CC1CC2CCC(C1)N2c1ccc(=O)n(CC(=O)Nc2ccn3ccnc3c2)n1 (stereo not drawn) [Example 237]', 27),
  ('CC1(C)CC(c2ccc(=O)n(CC(=O)Nc3ccc(C#N)cc3)n2)=CCO1 [Example 506]', 10),
  ('CC1CCN(c2ccc(=O)n(CC(=O)Nc3ccc4c(c3)NCC4)n2)CC1 [Example 233]', 47),
  ('Cc1ccc(Oc2ccc(=O)n(CC(=O)Nc3ccn4ncnc4c3)n2)cc1 [Example 530]', 9),
  ('CC1CC2CCC(C1)N2c1ccc(=O)n(CC(=O)N2CCc3c(N4CCOCC4)cccc32)n1 (stereo not drawn) [Example 238]', 128);

====

target: human Nav1.5 (Homo sapiens); construct: expressed in transfected cells; host or cells: CHO-K1 (T-REx System, ThermoFisher Scientific); assay: Amplification of Nav1.5-derived voltage-dependent sodium current (Nav1.5 current), cell line stably expressing human Nav1.5, automated patch clamp; assay type: cell-based; settings: compound 3 μmol/L; CHO-K1 stably expressing human Nav1.5; read-out: Nav1.5 current amplification rate (%)
Sequence (Q14524 1-2015 isoform Q14524-2): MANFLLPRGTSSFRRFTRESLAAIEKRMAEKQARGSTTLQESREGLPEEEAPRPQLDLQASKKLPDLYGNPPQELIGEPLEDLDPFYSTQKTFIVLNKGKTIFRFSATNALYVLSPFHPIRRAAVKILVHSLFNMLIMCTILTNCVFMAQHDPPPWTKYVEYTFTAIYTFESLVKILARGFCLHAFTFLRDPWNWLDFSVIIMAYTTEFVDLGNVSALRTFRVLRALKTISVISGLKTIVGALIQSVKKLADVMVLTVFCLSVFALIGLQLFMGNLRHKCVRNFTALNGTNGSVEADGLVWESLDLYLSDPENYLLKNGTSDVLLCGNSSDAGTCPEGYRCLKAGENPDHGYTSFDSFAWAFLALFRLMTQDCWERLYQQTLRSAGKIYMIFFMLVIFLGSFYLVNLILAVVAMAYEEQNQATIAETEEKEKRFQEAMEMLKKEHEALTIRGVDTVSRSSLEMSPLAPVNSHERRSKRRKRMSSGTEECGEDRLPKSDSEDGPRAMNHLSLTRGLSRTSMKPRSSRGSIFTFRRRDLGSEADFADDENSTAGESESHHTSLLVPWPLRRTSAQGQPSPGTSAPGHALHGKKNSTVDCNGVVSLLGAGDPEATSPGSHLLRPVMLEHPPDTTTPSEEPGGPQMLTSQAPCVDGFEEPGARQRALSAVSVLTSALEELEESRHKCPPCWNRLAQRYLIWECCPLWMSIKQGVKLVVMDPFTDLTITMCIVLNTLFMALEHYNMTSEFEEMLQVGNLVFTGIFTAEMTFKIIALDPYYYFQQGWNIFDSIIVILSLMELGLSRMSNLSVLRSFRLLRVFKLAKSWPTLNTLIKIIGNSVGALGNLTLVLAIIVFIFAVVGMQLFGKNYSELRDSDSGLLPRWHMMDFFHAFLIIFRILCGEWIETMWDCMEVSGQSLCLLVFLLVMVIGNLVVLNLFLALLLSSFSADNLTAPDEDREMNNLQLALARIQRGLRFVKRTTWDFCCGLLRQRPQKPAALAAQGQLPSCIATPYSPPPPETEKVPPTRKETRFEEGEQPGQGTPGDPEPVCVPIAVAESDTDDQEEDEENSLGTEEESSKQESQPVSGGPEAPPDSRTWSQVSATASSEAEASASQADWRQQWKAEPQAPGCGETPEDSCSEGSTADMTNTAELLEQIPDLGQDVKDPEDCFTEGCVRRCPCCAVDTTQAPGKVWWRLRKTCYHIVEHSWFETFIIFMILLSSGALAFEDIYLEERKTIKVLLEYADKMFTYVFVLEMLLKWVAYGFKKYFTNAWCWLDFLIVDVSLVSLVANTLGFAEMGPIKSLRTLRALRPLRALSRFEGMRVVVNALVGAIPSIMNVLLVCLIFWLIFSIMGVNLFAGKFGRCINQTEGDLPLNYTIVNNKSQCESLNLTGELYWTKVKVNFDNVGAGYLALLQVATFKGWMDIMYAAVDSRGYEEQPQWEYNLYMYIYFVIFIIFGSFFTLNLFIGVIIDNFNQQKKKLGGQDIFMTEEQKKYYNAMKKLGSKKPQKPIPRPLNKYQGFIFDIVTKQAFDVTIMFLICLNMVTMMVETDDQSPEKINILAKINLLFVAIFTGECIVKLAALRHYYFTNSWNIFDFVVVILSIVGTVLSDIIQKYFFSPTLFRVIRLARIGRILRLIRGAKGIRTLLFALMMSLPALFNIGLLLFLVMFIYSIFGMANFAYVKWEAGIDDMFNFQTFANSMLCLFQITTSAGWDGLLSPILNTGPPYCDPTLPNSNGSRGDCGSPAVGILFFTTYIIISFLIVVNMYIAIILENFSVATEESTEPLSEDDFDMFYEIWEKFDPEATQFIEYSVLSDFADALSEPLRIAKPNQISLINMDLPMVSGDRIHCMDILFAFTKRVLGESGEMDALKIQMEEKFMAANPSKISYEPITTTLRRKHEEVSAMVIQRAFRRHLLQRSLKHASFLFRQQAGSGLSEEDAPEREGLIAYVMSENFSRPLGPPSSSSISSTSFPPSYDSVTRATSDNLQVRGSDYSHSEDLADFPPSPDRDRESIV
Overview of recorded activation at 3 µM for various compounds
reported.property: activation at 3 µM (%)

INSERT INTO measurements (compound, assayed_system, value_observed) VALUES
  ('O=C(Cn1nc(N2CCC3(CCC3)C2)ccc1=O)Nc1ccc2c(c1)OCCO2', 'human Nav1.5 (Homo sapiens)', 2),
  ('O=C(Cn1nc(C2=CCC3(CC2)CC3(F)F)ccc1=O)N1CCN(c2cncc(C(F)(F)F)c2)CC1 (stereo not drawn)', 'human Nav1.5 (Homo sapiens)', 5),
  ('COc1cc(=O)n(CC(=O)Nc2ccc3oc(C)nc3c2)nc1C1=CCC(C)(C)CC1', 'human Nav1.5 (Homo sapiens)', 16);

meta.source: patent US20220347175A1
